Data provenance is PubChem BioAssay (NCI).

Reported growth values follow for various compounds
- System: OVCAR-4 ovarian
- protocol: NCI-60 one-dose screen, 48 h (100 = growth as untreated, 0 = no growth, -100 = all killed)
- recordedConditions: 10 µM unless noted
About 83,000 compounds went through this panel and 20% of them were active in at least one assay; those are over-represented in the sample as a whole.
Value expressed in %; do not type the unit.

compound="CCCCOc1nc2c(C)cccc2cc1C1CNC(=O)c2ccccc2N1 (stereo not given)" targetortestsystem="OVCAR-4 ovarian" observable=growth valueobserved=71.7
compound=CCOC(=O)CC(C#N)(CC(=O)OCC)C(=O)OCC targetortestsystem="OVCAR-4 ovarian" observable=growth valueobserved=104
compound=COc1ccc(S(=O)(=O)N2CCN(c3cc4c(cc3F)c(=O)c(C(=O)O)cn4C3CC3)CC2)c(OC)c1 targetortestsystem="OVCAR-4 ovarian" observable=growth valueobserved=101
compound=CC(C)(C)c1cn2cccc(C(=O)N3CCN(CC(=O)Nc4ccc(Cl)cc4C(=O)c4ccccc4Cl)CC3)c2n1 targetortestsystem="OVCAR-4 ovarian" observable=growth valueobserved=50.6
compound=Clc1nc(Cl)c2ncn(C/C=C/Cn3cnc4c(Cl)nc(Cl)nc43)c2n1 targetortestsystem="OVCAR-4 ovarian" observable=growth valueobserved=94.6
compound=COc1cc(CCn2nnc3c(Nc4ccc(N5CCOCC5)cc4)ncnc32)cc(OC)c1 targetortestsystem="OVCAR-4 ovarian" observable=growth valueobserved=91.1
compound=COc1ccc(-c2nc(-c3nc4ccc(F)cc4[nH]3)cc3c2[nH]c2ccccc23)cc1 targetortestsystem="OVCAR-4 ovarian" observable=growth valueobserved=45.8
compound=O=C(/C=C/CN1CCOCC1)Nc1cc2c(Nc3ccc(F)c(Cl)c3F)ncnc2cc1OCCOC(F)F targetortestsystem="OVCAR-4 ovarian" observable=growth valueobserved=54.7
compound=CC(C)C[C@H](NC(=O)[C@@H](Cc1ccccc1)n1ccc(Nc2ccccc2)cc1=O)B(O)O targetortestsystem="OVCAR-4 ovarian" observable=growth valueobserved=33.9
compound=CCCCCCCN(CCCCCCC)C(=N)c1ccc(OC)c2ccccc12 targetortestsystem="OVCAR-4 ovarian" observable=growth valueobserved=-98

For the compound `O=C(CSc1nc(-c2ccc(Cl)cc2)cn1-c1ccc(Cl)cc1)c1ccc(Br)cc1` , give its reported growth.
9.78

# return recorded growth for input `O=C(N/N=C/c1c(Cl)cccc1Cl)c1ccccc1Nc1ccnc(C(F)(F)F)c1`
63.9

Identify measured growth corresponding to OC1CC2c3ccccc3C1c1ccccc12 (stereo not given)
100

For the compound `Cc1oc2nc[nH]c(=O)c2c1C(=O)/C=C/c1ccc(Cl)cc1` , give its measured growth value.
29.8

---

- Tested on: SNB-75 CNS
- protocol: NCI-60 one-dose screen, 48 h
- recordedConditions: 10 µM unless noted
The panel holds about 83,000 compounds, 20% with a hit somewhere; the sample as a whole holds those more often. The source made the active and inactive calls. The calls were made as follows: active = growth percent below 10; inactive = the rest.
Field 'call' accepts active, inactive

Use these answered entries as a reference point.
itemsmiles=c1ccc(CCn2nnc3c(Nc4ccc(N5CCOCC5)cc4)ncnc32)cc1 targetortestsystem="SNB-75 CNS" classname=inactive
itemsmiles=COc1cc(OC)cc(-c2n[nH]nc2-c2ccc3c(c2)OCO3)c1 targetortestsystem="SNB-75 CNS" classname=active
itemsmiles=O=C1C2=C(C(=O)c3c(O)ccc(O)c31)N(c1cccnc1)Cc1ccccc1O2 targetortestsystem="SNB-75 CNS" classname=inactive
itemsmiles=COc1ncc(-c2ccc3ncnc(Nc4cccc(Cl)c4)c3c2)cc1N(S(C)(=O)=O)S(C)(=O)=O targetortestsystem="SNB-75 CNS" classname=inactive
itemsmiles=COc1ccccc1CNCCCN1C(=O)c2ccc3c4c(ccc(c24)C1=O)C(=O)N(CCCNCCCCNCCCCN)C3=O targetortestsystem="SNB-75 CNS" classname=active
itemsmiles=COc1ccc(-c2nc3sccn3c2-c2ccnc(NCCCNS(=O)(=O)c3ccc(F)cc3)n2)cc1 targetortestsystem="SNB-75 CNS" classname=inactive
itemsmiles=COc1cc(Cn2c(SCC(=O)Nc3cc(OC)c(OC)c(OC)c3)nc3ccccc3c2=O)cc(OC)c1OC targetortestsystem="SNB-75 CNS" classname=active
itemsmiles=O=C(Nc1ccc(F)cc1)c1cc([N+](=O)[O-])ccc1O targetortestsystem="SNB-75 CNS" classname=inactive

Now take the following compound into account.
I'd appreciate the recorded outcome for `CCc1c(C(=O)Nc2ccc3ccccc3c2)[nH]c(C)c1C(C)=O` from this test.
inactive
